Target: hTMEM16A (abc) (Homo sapiens, UniProt Q5XXA6, DEL476-501)
Test: medchem TMEM16A halide-sensitive YFP assay, 22-point dose-response
Assay type: cell-based
Parameters: expressed in transfected cells
Conditions: supplement; iodide as permeant anion, maximum concentration 55.6; read-out: TMEM16A eYFP Assay IC50
Quantity name: pIC50
Just the number, please; pIC50 means minus log10 of the concentration in mol/L.

stdin: Look up and report measured pIC50 (hTMEM16A (abc) (Homo sapiens, UniProt Q5XXA6, DEL476-501)) for the following compound: O=C(Nc1c(F)cccc1F)c1cc(Cl)ccc1O
stdout: 4.87

----------
Parameter pIC50: see the listing below.
Molecular target: TMEM16A (acd) (Homo sapiens)
Sequence (Q5XXA6 1-986): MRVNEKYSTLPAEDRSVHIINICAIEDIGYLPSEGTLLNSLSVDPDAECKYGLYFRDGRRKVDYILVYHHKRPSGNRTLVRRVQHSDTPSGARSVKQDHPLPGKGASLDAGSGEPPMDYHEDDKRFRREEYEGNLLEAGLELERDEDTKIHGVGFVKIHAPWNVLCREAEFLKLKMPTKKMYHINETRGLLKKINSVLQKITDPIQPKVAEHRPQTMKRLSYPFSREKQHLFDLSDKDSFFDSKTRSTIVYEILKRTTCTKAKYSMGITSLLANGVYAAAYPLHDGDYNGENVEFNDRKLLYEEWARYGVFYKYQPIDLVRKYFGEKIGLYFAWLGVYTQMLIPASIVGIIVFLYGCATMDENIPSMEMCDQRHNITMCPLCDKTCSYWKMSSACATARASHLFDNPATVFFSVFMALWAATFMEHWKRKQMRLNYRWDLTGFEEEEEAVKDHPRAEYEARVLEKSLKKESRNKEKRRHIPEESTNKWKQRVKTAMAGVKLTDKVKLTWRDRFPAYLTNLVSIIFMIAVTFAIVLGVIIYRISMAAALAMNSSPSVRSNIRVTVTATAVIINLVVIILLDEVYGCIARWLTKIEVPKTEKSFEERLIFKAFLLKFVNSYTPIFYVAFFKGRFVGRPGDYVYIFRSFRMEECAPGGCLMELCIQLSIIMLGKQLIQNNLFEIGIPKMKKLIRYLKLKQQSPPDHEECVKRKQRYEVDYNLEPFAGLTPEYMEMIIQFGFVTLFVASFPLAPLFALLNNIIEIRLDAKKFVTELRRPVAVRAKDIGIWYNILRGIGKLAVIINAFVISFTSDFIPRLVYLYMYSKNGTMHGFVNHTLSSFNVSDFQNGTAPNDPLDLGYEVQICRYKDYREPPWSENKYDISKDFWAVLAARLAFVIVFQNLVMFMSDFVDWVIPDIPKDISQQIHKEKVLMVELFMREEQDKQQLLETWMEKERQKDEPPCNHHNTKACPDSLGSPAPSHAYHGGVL
Experiment: QPatch whole-cell electrophysiology, HEK293 TMEM16A (acd)
Assay type: cell-based
Conditions: QPatch, outward current at +100 mV, 170 nM free intracellular calcium, ~60 s per concentration; read-out: TMEM16A Chloride Current (IC50)
Description: HEK293 cells stably expressing the TMEM16A (acd) variant were purchased from SB Drug Discovery. The HEK293 TMEM16A (abc) stable cell line was from ChanTest and COLO-205 cells were purchased from ATCC. […] A cumulative concentration response was measured where each cell is exposed to five concentrations of test article with a dilution factor of 1:5 (e.g., 0.048, 0.24, 1.2, 6, and 30 μM). Cells were recorded for ∼60 s per solution/compound addition. […]
Just the number, please; pIC50 means minus log10 of the concentration in mol/L.

Consider the following illustrative entries.
Compound: CCc1oc2ccccc2c1C(=O)c1cc(Br)c(O)c(Br)c1
pIC50: 5.39
--
Compound: CC(=O)Oc1ccccc1C(=O)Nc1ncc([N+](=O)[O-])s1 [Nitazoxanide]
pIC50: 5.90
--
Compound: N#Cc1c(C(F)(F)F)cc(O)n2c1nc1ccccc12
pIC50: 5.55

Now consider the entry below.
stdin: Look up and report measured pIC50 (TMEM16A (acd) (Homo sapiens)) for the following compound: COc1cc([N+](=O)[O-])ccc1NC(=O)c1cc(Cl)c2ccccc2c1O
stdout: 6.21

Provenance of the data: paper PMC6382696
